experimental.target: GSK-3β (Homo sapiens, UniProt P49841)
Sequence (P49841 whole entry, species assumed): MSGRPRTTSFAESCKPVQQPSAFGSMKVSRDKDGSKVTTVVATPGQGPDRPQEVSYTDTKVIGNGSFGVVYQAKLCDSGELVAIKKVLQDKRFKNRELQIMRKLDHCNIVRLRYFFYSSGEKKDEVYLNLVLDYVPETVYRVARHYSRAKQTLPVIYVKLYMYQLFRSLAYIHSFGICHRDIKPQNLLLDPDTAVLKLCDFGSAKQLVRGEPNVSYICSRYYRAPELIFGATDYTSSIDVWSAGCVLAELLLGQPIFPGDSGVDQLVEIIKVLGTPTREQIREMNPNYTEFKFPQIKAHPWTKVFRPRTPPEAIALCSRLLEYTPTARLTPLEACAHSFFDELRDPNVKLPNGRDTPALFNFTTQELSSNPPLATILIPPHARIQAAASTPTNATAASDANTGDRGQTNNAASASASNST
protocol.text: GSK3 scintillation proximity assay (SPA) kinase assay
Format: biochemical
recorded.conditions: 20 nM kinase, 2.5 uM ATP, biotinylated glycogen synthase peptide, 40 minutes at room temperature; -log IC50 in Molar; read-out: GSK-3 pIC50 (converted)
Where a name gives a salt, the structure may show the parent alone.
Provide the recorded IC50 for the entries that follow.

In the examples that follow, each entry is paired with its recorded IC50.
> print(dat)
                                   compound             val
1  COc1ccc(/C=N/Nc2ncnc3c2cnn3-c2ccccc2)cn1  100 to 1000 nM
2  CN1CCN(CCCNC(=O)c2ccc(/C=N/Nc3ncnc4c3cnn4-c3ccccc3)cc2)CC1  100 to 1000 nM
3  O=C(NCc1ccccn1)c1ccc(/C=N/Nc2ncnc3c2cnn3-c2ccccc2)cc1  100 to 1000 nM

For the 7 compounds below, give their IC50 values.
1. CCOc1cc(/C=N/Nc2ncnc3c2cnn3-c2ccccc2)cc(Br)c1O
2. COc1ccc(/C=N/Nc2ncnc3c2cnn3-c2ccccc2)cc1OC
3. NCCNC(=O)c1ccc(/C=N/Nc2ncnc3c2cnn3-c2ccccc2)cc1
4. C(=N\Nc1ncnc2c1cnn2-c1ccccc1)/c1ccnc2ccccc12
5. COc1cc(/C=N/Nc2ncnc3c2cnn3-c2ccccc2)cc(Br)c1O
6. O=C(O)/C=C/c1ccc(/C=N/Nc2ncnc3c2cnn3-c2ccccc2)cc1
7. OCCOc1ccc(/C=N/Nc2ncnc3c2cnn3-c2ccccc2)cc1

OUTPUT:
1000 to 10000 nM
100 to 1000 nM
100 to 1000 nM
1000 to 10000 nM
100 to 1000 nM
100 to 1000 nM
100 to 1000 nM

For the 2 compounds below, give their IC50 values.
1. O=C(NCCc1c[nH]cn1)c1ccc(/C=N/Nc2ncnc3c2cnn3-c2ccccc2)cc1
2. OCc1cc(/C=N/Nc2ncnc3c2cnn3-c2ccccc2)ccc1O

OUTPUT:
["100 to 1000 nM", "100 to 1000 nM"]

For the 3 compounds below, give their IC50 values.
1. CN(C)CCNc1ccc(/C=N/Nc2ncnc3c2cnn3-c2ccccc2)cn1 [Example 19, hydrochloride]
2. O=C(NCCN1CCCCC1)c1ccc(/C=N/Nc2ncnc3c2cnn3-c2ccccc2)cc1
3. O=C(NCCN1CCCC1)c1ccc(/C=N/Nc2ncnc3c2cnn3-c2ccccc2)cc1

OUTPUT:
1. < 100 nM
2. < 100 nM
3. 100 to 1000 nM

Provenance of the data: patent US20050267133A1
